The reported numbers originate from patent US10479795B2.

test system: Phosphorylated Ribosomal Protein S6 (RPS6); experiment: THP-1 RPS6 ELISA Assay; assay type: cell-based, Human; details: THP-1 cells; read-out: PI3Kγ_THP1_RPS6_ELISA IC50
Counter-ions that a name gives are not always drawn.
Quantity name: IC50

The cases that follow already have their IC50 on record.
Challenge: Reported IC50, compound C[C@]1(O)CC[C@H](NS(=O)(=O)c2cc(-c3cnc4c(N)ncnn34)ccc2Cl)CC1 [Example 377] : ____
Response given: < 100 nM

Challenge: Next record, please: Cc1ccc(S(=O)(=O)NC23CC(C(F)F)(C2)C3)cc1-c1cnc2c(N)nc(C(F)(F)F)nn12 [Example 339, trifluoroacetate salt]
Response given: 100 to 500 nM

Challenge: Next record, please: Cc1ccc(S(=O)(=O)NC23CC(CO)(C2)C3)cc1-c1cnc2c(N)nc(C(F)(F)F)nn12 [Example 319]
Response given: < 100 nM

Challenge: Next record, please: Cc1noc(C23CC(NS(=O)(=O)c4ccc(C)c(-c5cnc6c(N)ncnn56)c4)(C2)C3)n1 [Example 94, trifluoroacetate salt]
Response given: 500 to 1000 nM

Challenge: Next record, please: Cc1ccc(S(=O)(=O)NC23CC(Cn4cncn4)(C2)C3)cc1-c1cnc2c(N)nc(C(F)(F)F)nn12 [Example 338]
Response given: 100 to 500 nM

Would you mind giving IC50 for every compound in the list below?
1. Cc1nc(N)c2ncc(-c3cc(S(=O)(=O)NCC(O)C(F)(F)F)ccc3C)n2n1 (single isomer, unassigned) [Example 267]
2. Cc1ccc(S(=O)(=O)NC23CC(C#N)(C2)C3)cc1-c1cnc2c(N)nc(C(F)(F)F)nn12 [Example 330, trifluoroacetate salt]
3. Cc1ccc(S(=O)(=O)NC2CCOC2C)cc1-c1cnc2c(N)ncnn12 (centres unmarked) [Example 100, trifluoroacetate salt]
4. Cc1ccc(S(=O)(=O)NC23CCC(CC2)C3)cc1-c1cnc2c(N)ncnn12 [Example 180, trifluoroacetate salt]
5. C[C@]1(O)CC[C@H](NS(=O)(=O)c2cc(-c3cnc4c(N)ncnn34)ccc2F)CC1 [Example 376]
6. Cc1ccc(S(=O)(=O)N(C)C23CC(N)(C2)C3)cc1-c1cnc2c(N)ncnn12 [Example 118, trifluoroacetate salt]
7. Cc1ccc(S(=O)(=O)NC23CCC(C(=O)O)(C2)C3)cc1-c1cnc2c(N)ncnn12 [Example 109]
8. Cc1ccc(S(=O)(=O)NC23CCC(CO)(C2)C3)cc1-c1cnc2c(N)nc(C(F)(F)F)nn12 [Example 328, trifluoroacetate salt]

Response given:
["100 to 500 nM", "< 100 nM", "500 to 1000 nM", "100 to 500 nM", "> 1000 nM", "> 1000 nM", "> 1000 nM", "< 100 nM"]

Challenge: Reported IC50, compound Cc1ccc(S(=O)(=O)NC23CCN(CC2)CC3)cc1-c1cnc2c(N)ncnn12 [Example 182, trifluoroacetate salt] : ____
Response given: 500 to 1000 nM

###

biological target: PI3Kδ (p110δ/p85α) Recombinant Human Protein (Homo sapiens (Human)); assay: PI3Kδ Scintillation Proximity Assay
Sequence (O00329 whole entry): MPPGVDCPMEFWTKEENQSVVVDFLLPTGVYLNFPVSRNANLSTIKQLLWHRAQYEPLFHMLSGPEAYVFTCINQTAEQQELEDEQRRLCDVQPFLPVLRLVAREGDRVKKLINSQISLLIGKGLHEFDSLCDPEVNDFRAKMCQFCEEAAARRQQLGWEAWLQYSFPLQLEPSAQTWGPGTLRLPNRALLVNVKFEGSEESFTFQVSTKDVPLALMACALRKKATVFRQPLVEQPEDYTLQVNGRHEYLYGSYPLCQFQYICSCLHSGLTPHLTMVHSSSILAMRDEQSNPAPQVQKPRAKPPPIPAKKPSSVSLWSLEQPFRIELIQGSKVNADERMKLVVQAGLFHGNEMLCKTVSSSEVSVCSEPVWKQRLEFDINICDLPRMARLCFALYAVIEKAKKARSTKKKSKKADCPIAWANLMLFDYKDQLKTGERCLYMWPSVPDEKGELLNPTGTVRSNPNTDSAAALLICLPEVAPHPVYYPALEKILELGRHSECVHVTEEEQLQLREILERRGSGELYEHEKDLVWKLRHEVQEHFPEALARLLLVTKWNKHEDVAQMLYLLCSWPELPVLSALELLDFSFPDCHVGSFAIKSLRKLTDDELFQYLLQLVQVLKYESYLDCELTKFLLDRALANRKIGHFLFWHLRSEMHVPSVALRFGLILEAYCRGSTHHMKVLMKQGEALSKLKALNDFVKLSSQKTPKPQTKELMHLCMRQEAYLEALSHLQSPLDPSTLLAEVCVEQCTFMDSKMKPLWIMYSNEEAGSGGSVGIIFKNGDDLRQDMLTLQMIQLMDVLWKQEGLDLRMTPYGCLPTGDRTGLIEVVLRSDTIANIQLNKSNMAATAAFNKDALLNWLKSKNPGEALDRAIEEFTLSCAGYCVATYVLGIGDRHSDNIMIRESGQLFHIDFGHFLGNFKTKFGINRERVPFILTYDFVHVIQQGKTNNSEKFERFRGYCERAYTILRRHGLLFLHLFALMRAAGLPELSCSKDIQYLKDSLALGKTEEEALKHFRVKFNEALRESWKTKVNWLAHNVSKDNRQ
Sequence (P27986 whole entry partner): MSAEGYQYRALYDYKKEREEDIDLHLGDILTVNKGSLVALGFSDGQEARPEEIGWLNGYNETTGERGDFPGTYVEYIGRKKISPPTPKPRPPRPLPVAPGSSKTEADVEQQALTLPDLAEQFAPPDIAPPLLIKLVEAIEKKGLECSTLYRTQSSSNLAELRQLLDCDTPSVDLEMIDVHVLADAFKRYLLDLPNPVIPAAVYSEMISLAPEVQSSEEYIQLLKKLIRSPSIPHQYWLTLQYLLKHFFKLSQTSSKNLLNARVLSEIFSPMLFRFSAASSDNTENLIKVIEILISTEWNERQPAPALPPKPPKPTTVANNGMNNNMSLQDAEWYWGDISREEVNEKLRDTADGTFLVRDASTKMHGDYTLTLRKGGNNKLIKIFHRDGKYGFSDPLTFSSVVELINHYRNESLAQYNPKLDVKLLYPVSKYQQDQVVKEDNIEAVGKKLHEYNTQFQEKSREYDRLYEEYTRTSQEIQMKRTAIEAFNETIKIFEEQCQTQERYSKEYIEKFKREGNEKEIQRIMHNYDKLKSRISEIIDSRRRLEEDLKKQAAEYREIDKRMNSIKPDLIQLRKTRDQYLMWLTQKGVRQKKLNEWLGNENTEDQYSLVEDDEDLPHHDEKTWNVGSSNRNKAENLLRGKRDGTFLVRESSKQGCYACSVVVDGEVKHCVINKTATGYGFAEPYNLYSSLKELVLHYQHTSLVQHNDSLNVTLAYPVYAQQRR
Structures can show the parent of a compound that is named as a salt.
Quantity name: IC50

The cases that follow already have their IC50 on record.
Challenge: Reported IC50, molecule CCN(CC1CCCO1)S(=O)(=O)c1ccc(C)c(-c2cnc3c(N)ncnn23)c1 (stereo not shown) : ____
Response given: 500 to 2000 nM

Challenge: Next record, please: `Cc1ccc(S(N)(=O)=O)cc1-c1cnc2c(N)ncnn12`
Response given: 500 to 2000 nM

Challenge: Next record, please: `Cc1ccc(S(=O)(=O)N[C@H]2CC[C@@H](O)CC2)cc1-c1cnc2c(N)ncnn12`
Response given: 100 to 500 nM

Okay, next one:
Challenge: Reported IC50, molecule Cc1ccc(S(=O)(=O)NC23CC(F)(C2)C3)cc1-c1cnc2c(N)ncnn12 [Example 98, trifluoroacetate salt] : ____
Response given: 500 to 2000 nM
